subject of test: UniProt:P08922
Sequence (P08922 whole entry, looked up): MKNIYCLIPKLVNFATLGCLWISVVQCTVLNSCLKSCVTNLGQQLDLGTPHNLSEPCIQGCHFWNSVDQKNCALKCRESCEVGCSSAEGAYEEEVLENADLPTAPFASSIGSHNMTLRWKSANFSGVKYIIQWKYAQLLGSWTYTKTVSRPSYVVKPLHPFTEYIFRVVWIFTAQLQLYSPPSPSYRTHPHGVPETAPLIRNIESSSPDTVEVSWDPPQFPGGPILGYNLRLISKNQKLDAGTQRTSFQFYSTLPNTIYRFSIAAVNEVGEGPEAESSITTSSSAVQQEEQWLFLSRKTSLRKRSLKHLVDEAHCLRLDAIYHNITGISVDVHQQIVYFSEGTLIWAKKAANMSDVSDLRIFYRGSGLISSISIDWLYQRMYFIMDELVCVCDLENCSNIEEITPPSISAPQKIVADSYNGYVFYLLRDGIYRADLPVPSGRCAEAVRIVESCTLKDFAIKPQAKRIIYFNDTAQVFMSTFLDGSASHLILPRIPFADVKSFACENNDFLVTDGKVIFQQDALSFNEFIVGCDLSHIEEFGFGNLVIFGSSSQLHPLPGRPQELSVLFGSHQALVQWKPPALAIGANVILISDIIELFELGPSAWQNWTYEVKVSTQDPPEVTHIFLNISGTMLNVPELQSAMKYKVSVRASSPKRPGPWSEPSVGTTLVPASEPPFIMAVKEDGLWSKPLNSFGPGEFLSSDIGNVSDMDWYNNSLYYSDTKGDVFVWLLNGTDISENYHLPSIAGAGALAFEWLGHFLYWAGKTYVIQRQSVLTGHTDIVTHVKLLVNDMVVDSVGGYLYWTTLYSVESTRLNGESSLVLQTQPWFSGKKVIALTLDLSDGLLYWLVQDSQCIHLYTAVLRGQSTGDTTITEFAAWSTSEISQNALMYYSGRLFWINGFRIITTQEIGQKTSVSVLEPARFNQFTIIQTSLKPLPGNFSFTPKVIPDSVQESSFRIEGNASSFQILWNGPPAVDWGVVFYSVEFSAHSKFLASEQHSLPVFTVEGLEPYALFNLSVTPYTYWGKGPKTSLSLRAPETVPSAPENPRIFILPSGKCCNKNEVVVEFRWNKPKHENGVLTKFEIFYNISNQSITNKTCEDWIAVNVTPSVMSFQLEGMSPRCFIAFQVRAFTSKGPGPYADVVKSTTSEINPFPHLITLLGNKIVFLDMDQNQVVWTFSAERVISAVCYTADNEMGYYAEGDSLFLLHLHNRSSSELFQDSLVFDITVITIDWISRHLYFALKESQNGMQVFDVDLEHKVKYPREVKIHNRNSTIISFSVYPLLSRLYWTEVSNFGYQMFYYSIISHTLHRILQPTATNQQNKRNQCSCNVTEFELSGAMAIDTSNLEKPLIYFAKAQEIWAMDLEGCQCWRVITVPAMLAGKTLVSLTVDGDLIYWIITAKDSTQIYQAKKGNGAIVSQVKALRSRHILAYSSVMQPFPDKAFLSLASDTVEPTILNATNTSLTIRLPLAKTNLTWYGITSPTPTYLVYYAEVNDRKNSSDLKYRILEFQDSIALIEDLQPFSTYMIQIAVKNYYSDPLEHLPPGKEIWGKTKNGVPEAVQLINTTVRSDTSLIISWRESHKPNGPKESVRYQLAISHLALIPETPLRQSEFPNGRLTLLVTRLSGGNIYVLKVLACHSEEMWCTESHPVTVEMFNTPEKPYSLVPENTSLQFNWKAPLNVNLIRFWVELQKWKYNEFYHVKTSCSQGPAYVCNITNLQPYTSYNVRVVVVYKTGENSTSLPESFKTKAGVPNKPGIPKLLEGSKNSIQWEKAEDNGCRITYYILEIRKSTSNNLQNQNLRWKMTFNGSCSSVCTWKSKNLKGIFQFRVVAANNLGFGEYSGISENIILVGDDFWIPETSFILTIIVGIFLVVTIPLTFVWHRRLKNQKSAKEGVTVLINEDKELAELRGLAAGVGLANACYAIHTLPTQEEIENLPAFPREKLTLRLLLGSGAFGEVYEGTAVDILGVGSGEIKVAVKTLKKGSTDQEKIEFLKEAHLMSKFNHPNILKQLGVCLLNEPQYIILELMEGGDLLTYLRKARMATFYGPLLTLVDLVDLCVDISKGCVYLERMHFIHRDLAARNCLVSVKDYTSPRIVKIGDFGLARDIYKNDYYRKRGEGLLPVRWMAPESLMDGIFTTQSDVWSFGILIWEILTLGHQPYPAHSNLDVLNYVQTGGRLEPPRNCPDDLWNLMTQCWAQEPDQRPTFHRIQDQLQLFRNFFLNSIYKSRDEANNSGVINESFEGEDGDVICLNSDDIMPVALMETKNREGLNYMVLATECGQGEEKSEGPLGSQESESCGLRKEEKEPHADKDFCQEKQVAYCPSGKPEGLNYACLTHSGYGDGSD
test protocol: KINOMEscan competition binding
cond: compound 10.0 µM
Entries whose kinase still bound, per cent of control is below 80% take t; entries at or above 80% take f.

Recorded results for 8 compounds are shown here.
CC1=C(C(=O)Nc2cc3cn[nH]c3cc2F)C(c2ccc(C(F)(F)F)cc2)CC(=O)N1 (configuration not stated); f
O=c1[nH]c2ccccc2n1C1CCN(Cc2ccc(-c3nc4cc5[nH]cnc5cc4nc3-c3ccccc3)cc2)CC1; t
Cc1cn(-c2cc(C(=O)Nc3ccc(C)c(NC(=O)c4ccno4)c3)cc(C(F)(F)F)c2)cn1; f
CCc1nc(-c2cccc(C)c2)c(-c2ccnc(NC(=O)c3ccccc3)c2)s1; t
N#Cc1cc(-c2ccnc(Nc3ccc(-n4cnc(-c5cccnc5)n4)cc3)n2)cc(N2CCOCC2)c1; t
COc1cc2c(Nc3ccc(NC(=O)c4ccccc4)cc3)ncnc2cc1OCCCN1CCOCC1; t
CCOc1cc(N2CCC(O)CC2)ccc1Nc1ncc2c(n1)N(C)c1ccccc1C(=O)N2C; t
CCN(CCO)CCCOc1ccc2c(Nc3cc(CC(=O)Nc4cccc(F)c4)[nH]n3)ncnc2c1; f

Alright, here's another compound for you.
State whether 80% exceeds kinase still bound, per cent of control recorded for `CCCS(=O)(=O)Nc1ccc(F)c(C(=O)c2c[nH]c3ncc(Cl)cc23)c1F` .
t
